- protocolDetails: Single Ascending Dose (SAD) study plasma PK in healthy volunteers
- Format: in vivo, human
- settings: human, plasma, oral, SAD and MAD studies, human plasma; read-out: terminal t1/2 (converted)
measuredProperty: half-life

Q: Endpoint output: half-life of [2H][C@@](N)(CO)C(=O)O . Value?
Result: ~19 h

* * *

- protocolDetails: Single Ascending Dose (SAD) study plasma PK in healthy volunteers
- Assay type: in vivo, human
- settings: human, plasma, po, 2 g, 2 g single oral dose, fasted; arithmetic mean; read-out: t1/2 (converted)
- Protocol: The 0.5, 2, 3, and 4 g doses were evaluated under fasted conditions (after an overnight fast) while the 1 g dose was evaluated under both fasted and fed conditions (within 30 minutes of consumption of a meal) in a crossover design. […] Blood samples for PK analysis were obtained at several time points after dose administration. Safety assessments included monitoring of adverse events and clinical laboratory testing including monitoring of kidney function.
measuredProperty: half-life (min)
Express the result in min but write the number alone.

Q: Endpoint output: half-life of [2H][C@@](N)(CO)C(=O)O . Value?
Result: 1210
